Tested on: NCI-H650
Experiment: relative viability (nuclei count vs DMSO), 5 days (fraction); higher = more cells survive
Conditions: first compound 0.0002 µM
Recorded relative viability for the following compounds
I only need the number, thanks.

| COMPOUND | relative viability |
| --- | --- |
| CC(=O)O[C@@]12CO[C@@H]1C[C@H](O)[C@@]1(C)C(=O)[C@H](O)C3=C(C)[C@@H](OC(=O)[C@H](O)[C@@H](NC(=O)OC(C)(C)C)c4ccccc4)C[C@@](O)([C@@H](OC(=O)c4ccccc4)[C@H]21)C3(C)C [Docetaxel] + O=C(CCCCCCC(=O)Nc1ccccc1)NO [Vorinostat] (partner 1 µM) | 0.389 |

Query :: What value of relative viability has been reported for the following compound? CC(=O)O[C@@]12CO[C@@H]1C[C@H](O)[C@@]1(C)C(=O)[C@H](O)C3=C(C)[C@@H](OC(=O)[C@H](O)[C@@H](NC(=O)OC(C)(C)C)c4ccccc4)C[C@@](O)([C@@H](OC(=O)c4ccccc4)[C@H]21)C3(C)C [Docetaxel] + COc1cccc2cc(-c3nc([C@H]4CC[C@H](C(=O)O)CC4)n4ncnc(N)c34)[nH]c12 [OSI-027] (partner 0.5 µM)
Result :: 0.436

Query :: // relative viability lookup, key: CC(=O)O[C@@]12CO[C@@H]1C[C@H](O)[C@@]1(C)C(=O)[C@H](O)C3=C(C)[C@@H](OC(=O)[C@H](O)[C@@H](NC(=O)OC(C)(C)C)c4ccccc4)C[C@@](O)([C@@H](OC(=O)c4ccccc4)[C@H]21)C3(C)C [Docetaxel] + N=C(N)NC(=N)NCCc1ccccc1 [Phenformin] (partner 250 µM)
Result :: 0.447
